target: UniProt:Q32ZE1; experiment: malachite green phosphate release NTPase assay; assay type: biochemical
Sequence (Q32ZE1 1673-2115 limits assumed): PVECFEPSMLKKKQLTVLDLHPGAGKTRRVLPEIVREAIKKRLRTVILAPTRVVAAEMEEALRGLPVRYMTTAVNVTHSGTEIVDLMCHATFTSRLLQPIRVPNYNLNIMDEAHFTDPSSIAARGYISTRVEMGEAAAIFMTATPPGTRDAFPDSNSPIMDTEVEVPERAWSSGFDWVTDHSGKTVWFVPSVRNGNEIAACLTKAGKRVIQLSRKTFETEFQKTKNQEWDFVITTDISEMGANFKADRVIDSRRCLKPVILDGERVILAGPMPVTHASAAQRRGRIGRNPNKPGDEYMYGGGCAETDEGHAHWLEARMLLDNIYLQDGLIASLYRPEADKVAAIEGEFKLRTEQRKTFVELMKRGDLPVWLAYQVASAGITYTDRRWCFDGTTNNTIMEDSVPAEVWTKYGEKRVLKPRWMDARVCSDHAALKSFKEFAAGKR
Readout type: IC50 (µM)
Quick reminder: number only, in µM, skip the unit.

Ask: Consider the compound COc1cc(/C=C/C(=O)CC(=O)/C=C/c2ccc(O)c(OC)c2)ccc1O and give its measured IC50.
Reply: 64.4
